# Test system: EKVX NSCLC
# Test: NCI tumour cell line growth inhibition, 48 h
Measured Metric: TGI

Study these solved cases before continuing.
C/C(CC(=O)Nc1cccc(C)c1C)=N\NC(N)=S ... > 100 µM
CC(C)=Cc1cc(C(=O)NCCNC(=O)c2cc(C=C(C)C)nc(NC#N)n2)nc(NC#N)n1 ... > 100 µM
COc1cc(O)c2c(=O)c(OC)c(-c3ccc(OC)c(OC)c3)oc2c1.[Sn] ... > 100 µM
O=Cc1cn(S(=O)(=O)c2ccccc2)c2ccccc12 ... > 100 µM
O=C1CCc2ccccc2O1 ... > 100 µM
COc1cc(/C=C/C2=NN(c3cccc(S(=O)(=O)O)c3)C3(C2)SCC(=O)N3c2nc3ccccc3s2)cc(OC)c1OC (stereo unspecified) ... > 100 µM
CNC(=O)c1cc(Oc2ccc3nc(NC(=O)Nc4cc(C(F)(F)F)cc(C(F)(F)F)c4)sc3c2)ccn1 ... 4.56 µM
COc1ccc(/C=C(\C2=NC(=O)CS2)c2nc3ccccc3[nH]2)cc1 ... > 100 µM
CC(C)(CO)NC(=O)c1cccs1 ... > 100 µM
Cc1nc(-n2nc(-c3ccccc3)cc2-c2ccccc2)sc1C(/C=C/c1ccc([N+](=O)[O-])cc1)=N/NC(N)=S ... > 100 µM

Q. What measured TGI is associated with CN1C(=O)[C@@H]2[C@@H]3c4ccccc4N[C@@H]3c3[nH]c4ccccc4c3[C@@H]2C1=O on EKVX NSCLC?
A. > 100 µM

Q. What measured TGI is associated with CCCCCCn1c2c(c3c(O)cccc31)C(=O)c1ccccc1-2 on EKVX NSCLC?
A. 43.5 µM

Q. What measured TGI is associated with Cc1ccnc(NC(c2ccccc2)c2ccc3cccnc3c2O)c1 (stereo unspecified) on EKVX NSCLC?
A. 15.8 µM

----------
# Tested on: HCT-15 colon
# Test: NCI tumour cell line growth inhibition, 48 h; in the data active means GI50 below about 0.43 µM; inactive means the rest
Use one of these outcomes when replying: active, inactive

Sample answers from the record:
CNC(=O)c1cc(Oc2cccc3nc(NC(=O)Nc4ccc(F)cc4F)ccc23)ccn1 ... active
COc1cc(/C=C2\CC3C4CCC5=CC(=O)CC[C@]5(C)C4CC[C@]3(C)C2=O)ccc1OCCN1CCCCC1 (stereo partly specified) ... inactive
CC/C(=C(/CC)c1ccc(O)cc1)c1ccc(O)cc1 ... inactive
COC1/C=C/OC2(C)Oc3c(C)c(O)c4c(O)c(c(C=NOC(c5ccccc5)c5ccccc5)c(O)c4c3C2=O)NC(=O)/C(C)=C/C=C/C(C)C(O)C(C)C(O)C(C)C(OC(C)=O)C1C (stereo unspecified) ... inactive
COc1cccc(/C=C2\CCc3ccccc3C2=O)c1 ... inactive
COC1=CC(c2ccc[nH]2)=N/C1=C\c1[nH]c(C)c(C)c1CCC(=O)OCc1ccccc1 ... active

Q. Hi, do you know how COc1ccc(/C=C/C(=O)c2ccccc2)cc1OC came out in this test?
A. inactive

Q. Hi, do you know how Cc1ccnc(NC(c2ccccc2)c2ccc3cccnc3c2O)c1 (stereo unspecified) came out in this test?
A. inactive

Q. Hi, do you know how C1C[S][Ge]2([S]CCS1)[S]CCSCC[S]2 came out in this test?
A. inactive

Q. Hi, do you know how ClCc1ccc(-c2ccc(Cn3cnc4c(Cl)ncnc43)cc2)cc1 came out in this test?
A. inactive

Q. Hi, do you know how N/C(=N\C(N)=N\c1nc2ccccc2s1)c1ccnc(Br)c1 came out in this test?
A. inactive

----------
# Test system: MDA-MB-231 breast
# Test: NCI tumour cell line growth inhibition, 48 h
Measured Metric: GI50

Q. Need GI50, item Clc1ccc(Nc2ncnc3c2sc2ncccc23)c(Cl)c1
A. > 100000 nM

Q. Need GI50, item COc1cc(/C=C2\CC3C4CCC5=CC(=O)CC[C@]5(C)C4CC[C@]3(C)C2=O)ccc1OCCN1CCCCC1 (some centres undefined)
A. 1850 nM

Q. Need GI50, item CNC(=O)c1cc(Oc2ccc3nc(NC(=O)Nc4cc(C(F)(F)F)cc(C(F)(F)F)c4)sc3c2)ccn1
A. 829 nM

Q. Need GI50, item COC1/C=C/OC2(C)Oc3c(C)c(O)c4c(O)c(c(C=NOC(c5ccccc5)c5ccccc5)c(O)c4c3C2=O)NC(=O)/C(C)=C/C=C/C(C)C(O)C(C)C(O)C(C)C(OC(C)=O)C1C (centres undefined)
A. 1350 nM

----------
# System: IGROV1 ovarian
# Test: NCI tumour cell line growth inhibition, 48 h
Measured Metric: TGI

COC(=O)Cc1nn2c(nc1=O)sc1ccc3ccccc3c12 ... > 100 µM
Clc1ccc(Nc2ncnc3c2sc2ncccc23)c(Cl)c1 ... > 100 µM
O=C1c2ccccc2-c2ccccc2C1(Cl)Cl ... 2.54 µM
N/C(=N\C(N)=N\c1nc2ccccc2s1)c1ccnc(Br)c1 ... > 100 µM
COCC1N=C(c2cc(OC)c(OC)c(OC)c2-c2cc3c(cc2[C@@H](C)O)OCO3)O[C@H]1c1ccccc1 (stereo partly drawn) ... > 100 µM
COc1cccc2c1C(=O)c1c(O)c3c(c(O)c1C2=O)CC(O)(C(C)=O)CC3O (stereo not drawn) ... 29.7 µM
COc1ccc(/C=C(\C2=NC(=O)CS2)c2nc3ccccc3[nH]2)cc1 ... > 100 µM
COc1ccc(Nc2ncccc2C(=O)NCc2cn(Cc3cccc(Oc4ccccc4)c3)nn2)c(OC)c1 ... > 100 µM
N#CC(C#N)C1CN2CCC1CC2 (stereo not drawn) ... > 100 µM
COc1ccc(C=NCCCN=Cc2ccc(OC)cc2O)c(O)c1 ... > 100 µM

Q. Need TGI, item C[C@H]1CCC2C(CN3CCCCC3)C(=O)OC2[C@]2(C)C(=O)CC(N3CCCCC3)C12O (stereo partly drawn)
A. 84.1 µM

Q. Need TGI, item O=C1C(c2c(O)[nH]c3ccc(I)cc23)=Nc2ccccc21
A. 9.24 µM

Q. Need TGI, item O=c1cc(NNc2cccc(F)c2)[nH]c(=S)[nH]1
A. > 100 µM

Q. Need TGI, item O=C1NC2OC(CO)C(O)C(O)C2O1 (stereo not drawn)
A. > 100 µM

Q. Need TGI, item c1cnc2nc3n(c2c1)CSC3
A. > 100 µM

----------
# System: LOX IMVI melanoma
# Test: NCI tumour cell line growth inhibition, 48 h
Below is a list of entries, each paired with its recorded TGI value.

Study these solved cases before continuing.
N/C(=N/N=C/c1cccc(F)c1)NO ... 97.7 µM
Cn1c(=O)oc2cc(C(=S)N3CCCCC3)ccc21 ... > 100 µM
CCOC(=O)[C@@]12NN=N[C@@H]1[C@H]1CO[C@H](c3ccccc3)N1C2=O ... 4.92 µM
CCSc1[nH]c(NC(=NC(C)C)NC(=O)c2ccccc2)c(C(N)=O)c1C(N)=O ... > 10 µM
CCCCc1c2c(nc3c1CCCC3=O)CCCC2 ... > 100 µM

Proceeding to the next compound to report its TGI.
Q. What measured TGI is associated with Clc1ccc(Nc2ncnc3c2sc2ncccc23)c(Cl)c1 on LOX IMVI melanoma?
A. > 100 µM

----------
# Test system: HOP-92 NSCLC
# Test: NCI tumour cell line growth inhibition, 48 h
Below is a list of entries, each paired with its recorded TGI value.

Study these solved cases before continuing.
N#CCN1CCCN(CC#N)CCN(CC#N)CCCN(CC#N)CC1 ... > 100 µM
O=C(CBr)NCCc1c[nH]c2ccccc12 ... 4.88 µM
CN1C(=O)[C@@H]2[C@@H]3c4ccccc4N[C@@H]3c3[nH]c4ccccc4c3[C@@H]2C1=O ... 59.7 µM

Q. Need TGI, item CCCCC1N=CNc2c1ccc1c2[nH]c2ccccc21 (stereo unspecified)
A. 9.72 µM

Q. Need TGI, item Cn1c2c(c3ccccc31)CCN(CCCN1CCN(c3ccccc3)CC1)C2=O
A. 31.7 µM

Q. Need TGI, item Cc1cc(C)c(C2=NO[C@@H]3C(=O)N(c4ccc(Cc5ccc(N6C(=O)[C@H]7C(c8c(C)cc(C)cc8C)=NO[C@H]7C6=O)cc5)cc4)C(=O)[C@H]23)c(C)c1
A. > 100 µM

Q. Need TGI, item COc1cc2oc(-c3ccc(O)cc3)cc(=O)c2c(OC)c1O
A. > 100 µM

Q. Need TGI, item COC(=O)Cc1nn2c(nc1=O)sc1ccc3ccccc3c12
A. > 100 µM

----------
Below is a list of entries, each paired with its recorded TGI value.
# Tested on: HOP-62 NSCLC
# Test: NCI tumour cell line growth inhibition, 48 h

Q. Need TGI, item CCCCc1c2c(nc3c1CCCC3=O)CCCC2
A. > 100 µM

Q. Need TGI, item CC1=C(C(=O)NCCCN(CCO)CCO)CC(C(=O)NCCCN(CCO)CCO)=C(C)N1
A. > 100 µM

Q. Need TGI, item CON(C(=O)OC(C)(C)C)c1ccccc1
A. > 100 µM

Q. Need TGI, item COC(=O)CC1NC(=O)C1C(C)(OC)OC (centres undefined)
A. > 100 µM

Q. Need TGI, item Cc1csc2c(=O)n(COCc3ccccc3)c(=O)[nH]c12
A. > 100 µM

Q. Need TGI, item COc1ccc2c(c1)C(=O)c1c-2c(OCCN2CCCCC2)nc2ccc(OC)cc12
A. 11.2 µM

Q. Need TGI, item O=c1[nH]c(-c2ccc(Cl)cc2)cc2ccsc12
A. > 100 µM

Q. Need TGI, item C/C(CC(=O)Nc1cccc(C)c1C)=N\NC(N)=S
A. > 100 µM
